Test system: NCI-H2170
Assay: relative viability (nuclei count vs DMSO), 5 days (fraction); higher = more cells survive
Settings: first compound 0.04 µM
metric name: relative viability
// no unit, no text: just the number

Requested field: relative viability. Item: O=C(O)c1ccc(-c2c[nH]c3ncc(-c4ccccc4)cc23)cc1C1CCCC1 + CC1(C)CCC(c2ccc(Cl)cc2)=C(CN2CCN(c3ccc(C(=O)NS(=O)(=O)c4ccc(N[C@H](CCN5CCOCC5)CSc5ccccc5)c(S(=O)(=O)C(F)(F)F)c4)cc3)CC2)C1 [Navitoclax] (partner 0.5 µM)
0.605

Requested field: relative viability. Item: O=C(O)c1ccc(-c2c[nH]c3ncc(-c4ccccc4)cc23)cc1C1CCCC1 + Nc1nc2[nH]cc(CCc3ccc(C(=O)N[C@@H](CCC(=O)O)C(=O)O)cc3)c2c(=O)[nH]1 [Pemetrexed] (partner 0.2 µM)
0.265

Requested field: relative viability. Item: O=C(O)c1ccc(-c2c[nH]c3ncc(-c4ccccc4)cc23)cc1C1CCCC1 + Cc1cc(Nc2cc(N3CCN(C)CC3)nc(Sc3ccc(NC(=O)C4CC4)cc3)n2)n[nH]1 [Tozasertib] (partner 0.1 µM)
0.721

Requested field: relative viability. Item: O=C(O)c1ccc(-c2c[nH]c3ncc(-c4ccccc4)cc23)cc1C1CCCC1 + C[C@@H](Oc1cc(-c2cnn(C3CCNCC3)c2)cnc1N)c1c(Cl)ccc(F)c1Cl [Crizotinib] (partner 1 µM)
1.12

Requested field: relative viability. Item: O=C(O)c1ccc(-c2c[nH]c3ncc(-c4ccccc4)cc23)cc1C1CCCC1 + CS(=O)(=O)N1CCN(Cc2cc3nc(-c4cccc5[nH]ncc45)nc(N4CCOCC4)c3s2)CC1 [Pictilisib] (partner 1 µM)
0.386

Requested field: relative viability. Item: O=C(O)c1ccc(-c2c[nH]c3ncc(-c4ccccc4)cc23)cc1C1CCCC1 + CCNC(=O)c1noc(-c2cc(C(C)C)c(O)cc2O)c1-c1ccc(CN2CCOCC2)cc1 [Luminespib] (partner 0.01 µM)
0.745
